Test system: PC3 (ATCC-CRL1435)
Assay: MTS cell proliferation and viability test on PC3 tumour line
Format: cell-based
Conditions: incubating the test compound for 72 hours, read-out: IC50 PC3 (concentration which results in 50% loss of cell proliferation and viability)
pIC50: −log10 of the molar value.
readout-kind: pIC50

# compound, readout-kind, experimental-value
records = [
    ("CNC(=O)c1ccc(-c2ccc(NC(=O)NCc3cccnc3)cc2)nc1NCc1cccnc1 [Compound 12]", "pIC50", 6.95),
    ("O=C(NCc1cccnc1)Nc1ccc(-c2ccc(C(=O)NCCN3CCCC3)c(Nc3ccccc3)n2)cc1 [Compound 33]", "pIC50", 9.52),
    ("CCNc1nc(-c2ccc(NC(=O)NCc3ccc(NC(C)C)nc3)cc2)ccc1C(=O)NCCN1CCCCC1 [Compound 108]", "pIC50", 6.46),
    ("CCNc1nc(-c2ccc(NC(=O)NCc3cccnc3)cc2)ncc1C(=O)NC [Compound 47]", "pIC50", 8.00),
    ("CNC(=O)c1ccc(-c2ccc(NC(=O)NCc3cccnc3)cc2)nc1NC1CC1 [Compound 23]", "pIC50", 10.00),
    ("CCNc1nc(-c2ccc(NC(=O)NCc3cccnc3)cc2)ccc1C(=O)NCCN1CCNCC1 [Compound 5]", "pIC50", 9.10),
    ("CNC(=O)c1ccc(-c2ccc(NC(=O)NCc3cccnc3)cc2)nc1NCc1ccccc1 [Compound 19]", "pIC50", 7.55),
]
